Assay: SMARCA2 (BRM) function activators, primary screen, cell-based, luminescence, high throughput (AID 652017);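 note: 0% = vehicle wells and 100% = reference activator wells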
Details: MG213 cells, MMTV-luciferase reporter, dexamethasone, overnight; at 9.1 µM; active compounds read high
About 3,800 (1%) of roughly 370,000 compounds were called active. This is one part of a sample in which actives are shown more often than they occur.
Quick list: activation per entry.
Use % as the unit, but write only the number.

Completed entries (count: 2):
{"columns": ["Molecule", "activation / %"],
 "data": [
  ["COc1ccc2c(c1)NP(=S)(c1ccccc1)N2 (stereo not drawn)", 0.4],
  ["O=C1CC(=O)N(Cc2ccccc2)C(=O)N1CCCCCCN1C(=O)CC(=O)N(Cc2ccccc2)C1=O", 1.8]
]}

Problem: Looking for the measured activation of Cc1cc(C)c2c(c1)NP(=S)(c1ccccc1)N2 (stereo not drawn) , can you help?
Solution: 9.88
